Please go through the items and note down their CC50.
System: HeLa
ASSAY_NOTES: Cytotoxicity against human HeLa cells assessed as reduction in cell viability incubated for 72 hrs measured by crystal violet based micro plate reader method
MEASUREMENT_SETUP: hela, 72 h

Quick one: CC50 for CNC(=O)c1cc(CCCOc2ccc(-c3noc(C(F)(F)F)n3)cc2C(F)(F)F)on1 ?
> 100 µM

Also need Cc1cc(-c2noc(C(F)(F)F)n2)cc(C)c1OCCCc1cc(-c2ccccc2)no1 , thanks.
> 100 µM

Also need CCOC(=O)c1cc(CCCOc2ccc(-c3noc(C(F)(F)F)n3)cc2[N+](=O)[O-])on1 , thanks.
> 100 µM

Also need Cc1cc(-c2noc(C(F)(F)F)n2)cc(C)c1OCCCc1cc(-c2ccc(OC(F)(F)F)cc2)no1 , thanks.
> 100 µM

Also need Cc1cc(-c2noc(C(F)(F)F)n2)cc(C)c1OCCCc1cc(C(N)=O)no1 , thanks.
> 100 µM

Also need CCOC(=O)c1cc(CCCOc2ccc(-c3noc(C(F)(F)F)n3)cc2OC)on1 , thanks.
> 100 µM

Also need CCOC(=O)c1cc(CCCOc2ccc(-c3noc(C(F)(F)F)n3)cc2F)on1 , thanks.
60.2 µM

Also need COc1cc(-c2noc(C(F)(F)F)n2)ccc1OCCCc1cc(C(=O)N(C)C)no1 , thanks.
68 µM

Also need Cc1cc(-c2noc(C(F)(F)F)n2)cc(C)c1OCCCc1cc(C(=O)NCc2ccccc2)no1 , thanks.
> 100 µM

Also need CCOC(=O)c1cc(CCCOc2c(C)cc(-c3noc(C(F)(F)F)n3)cc2C)on1 , thanks.
17.2 µM

Also need CN(C)C(=O)c1cc(CCCOc2ccc(-c3noc(C(F)(F)F)n3)cc2-n2cccc2)on1 , thanks.
21.2 µM
